# Method Notes: Half life of compound (0.15u) in pH 7.4 phosphate buffer (0.05 M) at 37 degree C
# Type: ADME
Where half-life equals or exceeds 0.6 h, the correct label is Condition met; where it does not, the label is Condition not met.

Inquiry: Check this compound for half-life at or above 0.6 h: CC1(C)S[C@@H]2[C@H](NC(=O)Cc3ccccc3)C(=O)N2C1C(=O)OCCO (some centres not stated)
Reply text: Condition met

Inquiry: Check this compound for half-life at or above 0.6 h: CN1C=CCC(C(=O)OCOC(=O)C2N3C(=O)[C@@H](NC(=O)Cc4ccccc4)[C@H]3SC2(C)C)=C1 (some centres not stated)
Reply text: Condition met

Inquiry: Check this compound for half-life at or above 0.6 h: CC(CNC(=O)C1=CN(C)C=CC1)OC(=O)C1N2C(=O)[C@@H](NC(=O)Cc3ccccc3)[C@H]2SC1(C)C (some centres not stated)
Reply text: Condition not met

Inquiry: Check this compound for half-life at or above 0.6 h: CN1C=CCC(C(=O)OCCOC(=O)C2N3C(=O)[C@@H](NC(=O)Cc4ccccc4)[C@H]3SC2(C)C)=C1 (some centres not stated)
Reply text: Condition met

Inquiry: Check this compound for half-life at or above 0.6 h: CN1C=CCC(C(=O)NCCOC(=O)C2N3C(=O)[C@@H](NC(=O)Cc4ccccc4)[C@H]3SC2(C)C)=C1 (some centres not stated)
Reply text: Condition not met

We now examine a further compound.
Inquiry: Check this compound for half-life at or above 0.6 h: CN1C=C(C(=O)NCCOC(=O)C2N3C(=O)[C@@H](NC(=O)Cc4ccccc4)[C@H]3SC2(C)C)c2ccccc2C1 (some centres not stated)
Reply text: Condition met
